Assay read-out IC50; system under study: Cyclin-dependent kinase 4/cyclin D (Homo sapiens, UniProt P11802).
API: value field is a number in nM; no unit string.

Qu. I'd like to know its IC50. The compound in question is `Nc1cc2cnc(Nc3ccc(N4CCNCC4)cn3)nc2n(C2CCCC2)c1=O`
Ans. 19

Qu. Look up IC50: CC(=O)c1c(C)c2cnc(Nc3ccc(N4C(C)COCC4C)cn3)nc2n(C2CCCC2)c1=O (stereo not given)
Ans. 30

Qu. Using the record for `COCCN(CCOC)c1ccc(Nc2ncc3c(C)c(C(C)=O)c(=O)n(C4CCCC4)c3n2)nc1` , report its IC50.
Ans. 51
